Recorded composite z-score, one value per entry.
Method description: small-molecule microarray binders of probe aNog, primary screen, biochemical, biotinylated probe, 635/667 nm fluorescence (AID 1115);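 further: probe is biotinylated aNog protein used at 0.15 µg/mL for 1 h at 4 C; z-score combines 667 nm fluorescence of each spot with its signal to noise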
Condition parameters: higher = more signal

Compound	composite z-score
COC(=O)[C@@]1(Cc2ccc(F)cc2)[C@H]2c3cc(C(=O)N(C)C)n(CC4CC4)c3C[C@H]2CN1C(=O)c1ccccc1	0.816
CCOC(=O)C1=CCC(c2ccc(C)cc2)N(S(=O)(=O)c2ccc(C)cc2)C1 (centres undefined)	0.542
CC(C)c1ccc(NN2C(C(O)c3cc(C(F)(F)F)cc(C(F)(F)F)c3)C=CC3C(=O)N(c4ccccc4)C(=O)C32)cc1 (centres undefined)	0.897
O=C1O[C@@H](c2ccccc2)[C@@H](c2ccccc2)N2[C@@H](c3ccc(OCCO)cc3)[C@]3(C(=O)Nc4ccccc43)[C@@H](C(=O)NC[C@H](O)c3ccccc3)[C@H]12	0.0597
C=CCNC(=O)[C@H]1[C@@H]2C(=O)O[C@@H](c3ccccc3)[C@@H](c3ccccc3)N2[C@@H](c2ccc(OCCO)cc2)[C@]12C(=O)N(C(=O)OCCOC)c1ccccc12	-0.0681
COc1cc2c(cc1OC)CN(C(=O)[C@H]1[C@@H]3C(=O)O[C@@H](c4ccccc4)[C@@H](c4ccccc4)N3[C@@H](c3ccc(O)cc3)[C@]13C(=O)Nc1ccc(C#CCNC(N)=O)cc13)CC2	-0.198
C=C(COC)/C(=C/C[C@@H](OC(C)=O)c1ccc(CO)o1)c1cnc2ccccc2c1	0.256
C=C(/C(=C/C[C@@H](OC(C)=O)c1ccc(OCCO)cc1)c1cnc2ccccc2c1)C(C)C	0.0541
O=C1OCCC/C=C\[C@H]2OC34C=CCN(CCN5CCOCC5)C(=O)[C@H]3N(CCCO)C(=O)[C@@H]4C12 (some centres undefined)	-0.23
CN1C(=O)C2C=CC(C(O)c3ccccc3)N(Nc3ccccc3)C2C1=O (centres undefined)	-0.448
CC(C)(C)OC(=O)CC[C@]1(C(=O)NCC(O)CO)COC(c2ccc(OCCCO)cc2)=N1 (some centres undefined)	0.592
C=CCOC(=O)[C@H]1[C@@H]2C(=O)O[C@@H](c3ccccc3)[C@@H](c3ccccc3)N2[C@@H](c2ccc(OCCOC(=O)[C@H]3C[C@H]4C(=O)N5CCC[C@H]5C(=O)N4[C@H]3c3ccc(O)cc3)cc2)[C@]12C(=O)Nc1ccccc12	-0.21
COc1cc(OC)c(C(O)C2C=CC3C(=O)NC(=O)C3N2Nc2ccc(Cl)cc2Cl)cc1Br (centres undefined)	1.61
COCC(=C=CC[C@H](O)c1ccccc1OCCO)C[C@H](O)c1cc(Cl)cc(Cl)c1O	0.464

====

Method description: small-molecule microarray binders of probe aDKK1, primary screen, biochemical, biotinylated probe, 635/667 nm fluorescence (AID 1099);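 further: score merges 667nm spot fluorescence with signal to noise across triplicate slides; reference of the scale not given here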
Condition parameters: higher = more signal
Recorded composite z-score, one value per entry.

Molecule	composite z-score
C=CCNC(=O)[C@@H]1[C@H]2C(=O)O[C@H](c3ccccc3)[C@H](c3ccccc3)N2[C@H](c2ccc(OCCO)cc2)[C@@]12C(=O)Nc1ccc(C#CCCO)cc12	-0.0674
O=C1NC(=O)C2C1C=CC(C(O)c1ccccc1)N2Nc1ccc(Cl)cc1Cl (stereo unspecified)	0.394
CCCC[C@@H]1C[C@H]1[C@@H](NC(=O)c1ccco1)c1ccc(C(=O)OC)cc1	0.0294
COc1ccc(CCN2C(=O)[C@@]3(c4ccc([N+](=O)[O-])cc4)CC(=O)N(C4CCCCC4)[C@@H]3c3ccc(CO)cc32)cc1	0.274
COC(=O)[C@@]1(Cc2ccccc2)[C@H]2c3cc(C(=O)N(C)C)n(CCSCCO)c3C[C@H]2CN1C(=O)c1ccccc1	0.692
CCOC(=O)C=Cc1cc([N+](=O)[O-])ccc1O	-0.14

====

Recorded composite z-score, one value per entry.
System: Sam68 (KHDRBS1)
Method description: Sam68 small-molecule binders, primary screen, biochemical, small-molecule microarray, 635 nm fluorescence (AID 1125);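 further: score merges 667 nm channel intensity with signal to noise over triplicate slides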
Condition parameters: small-molecule microarray binding, higher = more signal

Compound	composite z-score
COC(=O)[C@@]1(Cc2ccc(F)cc2)[C@@H]2[C@@H](CC(=O)[C@H]2CC(=O)C(=O)N(C)C)CN1C(=O)c1ccccc1	1.34
Cc1ccc(C(C)CC(O)C2C=CC3C(=O)N(C)C(=O)C3N2NC(=O)OC(C)(C)C)o1 (centres undefined)	1.21
O=C(C1N=C(c2ccc(OCCCO)cc2)N(c2ccccc2)O1)N1CCOCC1 (centres undefined)	1.32
O=C(NCc1ccccc1)[C@@]1(Cc2ccccc2)N=C(c2ccc(OCCCO)cc2)O[C@H]1c1ccccc1	1.31

====

Method description: binders of probe aFGF2 on microarray, primary screen, stem cell growth factor project, biochemical, small-molecule microarray, fluorescence 635/667 (AID 1067);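 further: measures binding of biotinylated aFGF2 protein to printed compounds on slides; z-score merges feature fluorescence and signal-to-noise across triplicate slides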
Condition parameters: higher = more signal
Recorded composite z-score, one value per entry.

Compound	composite z-score
COC(=O)C(CC#Cc1ccc2c(c1)[C@]1(C(=O)N2)[C@H](C(=O)O)[C@H]2C(=O)O[C@H](c3ccccc3)[C@H](c3ccccc3)N2[C@@H]1c1ccc(O)cc1)C(=O)OC	-0.0973
CCOC(=O)[C@H]1C/C=C/C[C@H](C(=O)OCC)C(=O)O[C@H]2[C@@H](OC)O[C@H](CO)[C@@H](OC(=O)Nc3ccc(C#N)cc3)[C@@H]2OC1=O	-0.0414
COCCOC(=O)N1C(=O)[C@@]2(c3ccccc31)[C@H](c1ccc(O)cc1)N1[C@H](c3ccccc3)[C@H](c3ccccc3)OC(=O)[C@H]1[C@@H]2C(=O)NC[C@H](O)c1ccccc1	-0.0702
COc1ccc([C@H]2C[C@H]3C(Br)=C[C@@H]2C(=O)[C@]32CO2)cc1	-0.083
O=C1OCCC=C[C@H]2OC34C=CCN(CCN5CCOCC5)C(=O)[C@H]3N(CCCCCCO)C(=O)[C@@H]4C12 (some centres not stated)	-0.147
COC(=O)[C@@]1(Cc2ccc(F)cc2)[C@H]2c3cc(C(=O)N(C)C)n(CC4CC4)c3C[C@H]2CN1C(=O)c1ccccc1	0.833
CCCCN1CC=CC23O[C@@H]4/C=C\CCC(C)OC(=O)C4[C@H]2C(=O)N(CCCCCO)[C@@H]3C1=O (some centres not stated)	-0.132

====

Method description: Plasmodium falciparum growth inhibition, primary screen, strain 3D7, DAPI fluorescence, 100 nL (AID 1184);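 further: parasites grown inside human red blood cells in medium with human serum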
Condition parameters: P. falciparum 3D7 growth, 3 d, higher = more signal
Rule: z-score under -0.6 gives False, otherwise True.

Compound	Answer label
CC(C)C[C@@H]1NC(=O)[C@H]2C[C@@H](C(=O)NCCCCCCN)[C@@H](c3ccc(O)cc3)N2C1=O	True
Cc1ccc(S[C@]2(C(=O)NC3CC3)CC(=O)N(C3Cc4ccccc4C3)[C@@H]2c2ccc(CO)cc2)cc1	True
C=CCNC(=O)[C@H]1[C@@H]2C(=O)O[C@@H](c3ccccc3)[C@@H](c3ccccc3)N2[C@@H](c2ccc(OCCO)cc2)[C@]12C(=O)N(C(=O)OCCOC)c1ccccc12	False
C=C(COC)/C(=C/C[C@@H](OC(C)=O)c1ccc(CO)o1)c1cnc2ccccc2c1	False
COc1ccc(C(=O)Nc2ccc(CN3C(=O)[C@@]4(O[C@@H](CC(=O)N5CCC[C@H]5CO)[C@H]([Si](C)(C)c5ccc(OC)cc5)[C@H]4C)c4ccccc43)cc2)cc1	True
C=CCOC(=O)[C@@H]1[C@H]2C(=O)O[C@H](c3ccccc3)[C@H](c3ccccc3)N2[C@H](c2ccc(OCCOC(=O)[C@@H]3C[C@@H]4C(=O)N5CCC[C@H]5C(=O)N4[C@@H]3c3ccc(O)cc3)cc2)[C@@]12C(=O)Nc1ccc(I)cc12	False
CCOC(=O)[C@H]1CC=C2CC1C(=O)N1CCC[C@@H]1[C@@H]2O[Si](C)(C)C(C)(C)C (some centres undefined)	True
COCCCNC(=O)C1N=C(c2ccc(OCCCO)cc2)N(c2ccccc2)O1 (centres undefined)	True
[N-]=[N+]=NCc1ccccc1[C@H]1OC(c2ccc(OCCCO)cc2)=N[C@@]1(Cc1ccccc1)C(=O)NCc1ccccc1	False
COC(=O)[C@@]1(Cc2ccc(F)cc2)[C@H]2c3cc(C(=O)N(C)C)n(CC4CC4)c3C[C@H]2CN1C(=O)c1ccccc1	False
CCCCN1CC=CC23O[C@@H]4/C=C\CCC(C)OC(=O)C4[C@H]2C(=O)N(CCCCCO)[C@@H]3C1=O (some centres undefined)	True
C=C(/C(=C/C[C@@H](OC(C)=O)c1ccc(OCCO)cc1)c1cnc2ccccc2c1)C(C)C	False
C[C@]1(C(=O)NC2CC2)c2ccccc2C(=O)N(Cc2cc(C(F)(F)F)cc(C(F)(F)F)c2)[C@H]1c1ccc(CO)cc1	False
CCCN1C(=O)[C@]2(CCS(=O)(=O)c3ccccc3)N=C(c3ccc(OCCCO)cc3)O[C@@H]2c2ccccc21	False
O=C1OCCC/C=C\[C@H]2OC34C=CCN(Cn5nnc6ccccc65)C(=O)[C@H]3N(CCCCCCO)C(=O)[C@@H]4C12 (some centres undefined)	True
CC(C)C[C@H]1NC(=O)[C@@]23C(=O)N[C@@H](Cc4ccccc4)C2[C@H](C)[C@@]2(C)O[C@H]2C3/C=C/C/C=C\CNC(=O)[C@H](Cc2ccccc2)NC1=O (some centres undefined)	False
O=C1[C@H]2C=C(Br)[C@H](C[C@@H]2OCCCCO)[C@@]12CO2	True
C=CCNC(=O)[C@H]1[C@@H]2C(=O)O[C@@H](c3ccccc3)[C@@H](c3ccccc3)N2[C@@H](c2ccccc2OCCO)[C@]12C(=O)Nc1ccc(C#CC3=CCCCC3)cc12	False
C=CCOC(=O)[C@@H]1[C@H]2C(=O)O[C@H](c3ccccc3)[C@H](c3ccccc3)N2[C@H](c2ccc(OCCOC(=O)[C@@H]3C[C@@H]4C(=O)N[C@@H](Cc5ccccc5)C(=O)N4[C@@H]3c3ccc(O)cc3)cc2)[C@@]12C(=O)Nc1ccc(I)cc12	False
CCCC[C@@H]1C[C@H]1[C@@H](NC(=O)c1ccco1)c1ccc(Cl)cc1	False
C=C(COC)/C(=C/C[C@@H](OC(C)=O)c1ccc(OCCO)cc1)c1cc(C(=O)OC)ccc1OC	False
COC(=O)[C@@]1(Cc2ccccc2)[C@H]2c3cc(C(=O)N4CCCC4)n(CC4CC4)c3C[C@H]2CN1C(=O)c1ccccc1	False
O=C1NC(=O)C2C1C=CC(C(O)C(c1ccccc1)c1ccccc1)N2Nc1ccc(Cl)cc1Cl (centres undefined)	True
N#Cc1ccc(NN2C(C(O)c3c(F)cccc3Cl)C=CC3C(=O)N(c4ccccc4)C(=O)C32)cc1 (centres undefined)	False
CCCC=C(CCC)[C@@H](NC(=O)Oc1ccc(F)cc1)c1ccc(C(=O)OC)cc1	True
CC(C)c1ccc(NN2C(C(O)c3cc(C(F)(F)F)cc(C(F)(F)F)c3)C=CC3C(=O)N(c4ccccc4)C(=O)C32)cc1 (centres undefined)	False
C=CCNC(=O)[C@H]1[C@@H]2C(=O)O[C@@H](c3ccccc3)[C@@H](c3ccccc3)N2[C@@H](c2ccc(OCCO)cc2)[C@]12C(=O)Nc1ccc(C#CC3=CCCCC3)cc12	False
CCc1oc(CC[C@@H](CO)NC(=O)NCCn2cc(C3(O)CCCCC3)nn2)c(C(=O)OC)c1C(=O)OC	True
Cc1ccc(S[C@]2(C(=O)NCCN3CCOCC3)CC(=O)N(Cc3ccccc3Cl)[C@@H]2c2ccc(CO)cc2)cc1	False
